- METHOD: Determination of toxicity (lethal action on the mouse after intraperitoneal application)
- Assay type: in vivo
- SETUP CONDITIONS: in vivo, ip; mouse i.p.; Table X
RECORDED ENDPOINT: LD50 at 336 h (mg/kg)
Answers are plain numbers, in mg/kg.

Use these answered entries as a reference point.
compound=O=C(O)CCCN(C(=O)c1ccc(Cl)cc1)c1cccc2ccccc12 reading=140
compound=O=C(O)CCCN(C(=O)c1ccc(Cl)cc1Cl)c1cccc2ccccc12 reading=240
compound=O=C(O)CCCCN(C(=O)c1ccc(Cl)cc1)c1cccc2ccccc12 reading=170
compound=O=C(O)CCCN(C(=O)c1cccc(C(F)(F)F)c1)c1cccc2ccccc12 reading=160
compound=O=C(O)CCCCCN(C(=O)c1ccc(Cl)cc1)c1cccc2ccccc12 reading=160
compound=COc1ccc(Cl)cc1C(=O)N(CCCC(=O)O)c1cccc2ccccc12 reading=270
compound=COc1ccc2cccc(N(CCCC(=O)O)C(=O)c3ccc(Cl)cc3)c2c1 reading=120

Continue with the compound presented below.
Consider CC(=O)N(CCCC(=O)O)c1cccc2ccccc12 [Serial No. 39, 4-[N-(α-naphthyl)acetamido]butyric acid] . Its measured LD50 at 336 h is 750

----------
- METHOD: Influence on pancreatic secretion of the narcotized rat
- Type: in vivo, rat (male Sprague-Dawley)
- SETUP CONDITIONS: in vivo; LD50 mouse i.p. / ED50 rat i.d.; Table X; read-out: TQ LD50/ED50, pancreatic secretion
Provide the reported selectivity ratio of each item.
Answers are plain numbers.

compound="O=C(O)CCCN(C(=O)c1ccc(Cl)cc1Cl)c1cccc2ccccc12 [Serial No. 41]" reading=32
compound="O=C(O)CCCCN(C(=O)c1ccc(Cl)cc1)c1cccc2ccccc12 [Serial No. 47]" reading=85
compound="COc1ccc2cccc(N(CCCC(=O)O)C(=O)c3ccc(Cl)cc3)c2c1 [Serial No. 46]" reading=400

Looking up O=C(O)CCCN(C(=O)c1ccc(Cl)cc1)c1cccc2ccccc12 [Serial No. 38] , I see its selectivity ratio listed as 56

----------
- METHOD: Antihepatotoxic effect: duration of hexobarbital sleep of the rat after liver damage by CCl4
- SETUP CONDITIONS: rat, in vivo, TQ LD50/ED25, antihepatotoxic effect, LD50 mouse i.p. / ED25 rat p.o.; Table V
- Method: The compounds to be tested are administered 1 hour prior to the administration of CCl4 orally in a liquid volume of 10 ml/kg. The antihepatotoxic effect of the compounds to be tested (sodium salts in aqueous solution) is determined by the reduction of the prolongation of sleeping period caused by the CCl4 liver cell damage in the groups treated, as compared with the prolongation of the sleeping period of the CCl4 control group (=100%). […]
RECORDED ENDPOINT: selectivity ratio
Give bare numbers.

Consider the reported selectivity ratio for these compounds:
molecule=CC=CC(=O)N(CCCC(=O)O)c1ccccc1-c1ccccc1 recorded_endpoint="selectivity ratio" reading=188
molecule=O=C(O)CCCN(C(=O)c1cccc(C(F)(F)F)c1)c1ccccc1-c1ccccc1 recorded_endpoint="selectivity ratio" reading=11
molecule=CC(C)C(=O)N(CCCCCC(=O)O)c1ccccc1-c1ccccc1 recorded_endpoint="selectivity ratio" reading=8.7
molecule=O=C(O)CCCN(C(=O)c1ccc(F)cc1)c1ccccc1-c1ccccc1 recorded_endpoint="selectivity ratio" reading=131
molecule=O=C(O)CCCCN(C(=O)c1ccc(Cl)cc1)c1ccccc1-c1ccccc1 recorded_endpoint="selectivity ratio" reading=46.7

Below: the item to evaluate.
Kindly note the recorded selectivity ratio for O=C(O)CCCN(C(=O)c1ccc(Cl)cc1)c1ccc(-c2ccccc2)cc1 , which is 8

----------
- METHOD: Antiulcerogenic (stomach-protective) action, pylorus ligature and acetylsalicylic acid
- Format: in vivo, rat (female)
- SETUP CONDITIONS: in vivo; LD50 mouse i.p. / ED50 rat i.d.; Table IV; read-out: TQ (LD50/ED50), antiulcerogenic action
Give selectivity ratio for every item shown.

Sample records with selectivity ratio:
molecule=O=C(O)CCCN(C(=O)c1ccc(F)cc1)c1ccccc1-c1ccccc1 recorded_endpoint="selectivity ratio" reading=~3.8
molecule=CC1(C)[C@@H](OC(=O)CCC(=O)O)CC[C@]2(C)[C@H]3C(=O)C=C4[C@@H]5C[C@@](C)(C(=O)O)CC[C@]5(C)CC[C@@]4(C)[C@]3(C)CC[C@@H]12 recorded_endpoint="selectivity ratio" reading=2.4
molecule=COc1ccc(Cl)cc1C(=O)N(CCCCCC(=O)O)c1ccccc1-c1ccccc1 recorded_endpoint="selectivity ratio" reading="> 20"

Consider the following items and state reported selectivity ratio for each.
1. COc1ccc(N(CCCC(=O)O)C(=O)c2ccc(Cl)cc2)cc1-c1ccccc1
2. O=C(O)CCCN(C(=O)c1cccc(C(F)(F)F)c1)c1ccccc1-c1ccccc1
3. O=C(O)CCCN(C(=O)c1ccc(Cl)cc1)c1ccc(-c2ccccc2)cc1
4. O=C(O)CCCN(C(=O)c1ccc(Cl)cc1)c1ccccc1-c1ccccc1
5. O=C(O)CCCCCN(C(=O)c1ccc(Cl)cc1)c1ccccc1-c1ccccc1

Result block:
1: > 12; 2: 11; 3: ~8; 4: 5.1; 5: ~3.3

----------
- METHOD: Influence on pancreatic secretion of the narcotized rat
- Format: in vivo, rat (male Sprague-Dawley)
- SETUP CONDITIONS: in vivo; LD50 mouse i.p. / ED50 rat i.d.; Table I; read-out: TQ (LD50/ED50), pancreatic secretion
RECORDED ENDPOINT: selectivity ratio
Give bare numbers.

Use the examples below as a reference point.
compound=COc1ccc(CCN(CCCC(=O)O)C(=O)c2ccc(Cl)cc2)cc1OC reading=156
compound=O=C(O)CCCN(C(=O)c1ccc(Cl)cc1)C12CC3CC(CC(C3)C1)C2 reading=200
compound=O=C(O)CCCN(C(=O)c1ccc(Cl)cc1)C1CCCCCCC1 reading=60

Working through the 4 compounds below one at a time, give selectivity ratio for each.
1. CC(c1ccccc1)N(CCCCCC(=O)O)C(=O)c1ccc(Cl)cc1 (stereo not shown)
2. C#CC1(N(CCCC(=O)O)C(=O)c2ccc(Cl)cc2)CCCCC1
3. CC(C)(C)CC(C)(C)N(CCCC(=O)O)C(=O)c1ccc(Cl)cc1
4. O=C(O)CCCN(Cc1ccccc1)C(=O)c1ccc(Cl)cc1

Result block:
1: 110; 2: 95; 3: 110; 4: 233

----------
- System: glucose formation from lactate and pyruvate in isolated perfused liver
- METHOD: Inhibition of the formation of glucose from lactate and pyruvate in the isolated perfused rat liver
- Set-up: species or system rat (male Sprague-Dawley)
- SETUP CONDITIONS: 0.2 mmole/liter in the perfusate; isolated perfused liver of fasting rats; Table VIII
RECORDED ENDPOINT: Glucose formation, % change (%)
Answers are plain numbers, in %.

Worked cases, answers included:
molecule=O=C(O)CCCN(C(=O)c1ccc(Cl)cc1)c1ccccc1-c1ccccc1 reading=-79
molecule=O=C(O)CCCCCN(C(=O)c1ccc(Cl)cc1)c1ccccc1-c1ccccc1 reading=-99
molecule=O=C(O)CCCN(C(=O)c1cccc(C(F)(F)F)c1)c1ccccc1-c1ccccc1 reading=-77
molecule=O=C(O)CCCN(C(=O)c1ccc(F)cc1)c1ccccc1-c1ccccc1 reading=-51
molecule=O=C(O)CCCCN(C(=O)c1ccc(Cl)cc1)c1ccccc1-c1ccccc1 reading=-89

Proceeding to the next molecule to report its Glucose formation, % change.
The measured Glucose formation, % change associated with O=C(O)CCCCCN(C(=O)c1ccc(Cl)cc1Cl)c1ccccc1-c1ccccc1 reads -93

----------
For each of the molecules below, state its ED50.
- System: stomach ulcer
- METHOD: Antiulcerogenic (stomach-protective) action, pylorus ligature and acetylsalicylic acid
- Format: in vivo, rat (female)
- SETUP CONDITIONS: 4 h; rat, intraduodenally; Table IV; read-out: ED50 antiulcerogenic action (dose which reduces the mean ulcer index by 50%)

# example entries with known answers
molecule="O=C(O)CCCN(C(=O)c1ccc(Cl)cc1)c1ccc(-c2ccccc2)cc1 [Serial No. 23]" reading="~15 mg/kg"
molecule="O=C(O)CCCN(C(=O)c1ccc(F)cc1)c1ccccc1-c1ccccc1 [Serial No. 26]" reading="~55 mg/kg"

Record ED50 per entry; entries follow.
1. O=C(O)CCCCN(C(=O)c1ccccc1O)c1ccccc1-c1ccccc1 [Serial No. 32]
2. CC=CC(=O)N(CCCC(=O)O)c1ccccc1-c1ccccc1 [Serial No. 27]

Result block:
< 10 mg/kg
~55 mg/kg

Go through the items and report each one's ED50.
1. COc1ccc(N(CCCC(=O)O)C(=O)c2ccc(Cl)cc2)cc1-c1ccccc1 [Serial No. 35]
2. O=C(O)CCCCCN(C(=O)c1ccc(Cl)cc1)c1ccccc1-c1ccccc1 [Serial No. 24]

Result block:
["< 10 mg/kg", "~40 mg/kg"]

----------
- METHOD: Determination of toxicity (lethal action on the mouse after intraperitoneal application)
- Type: in vivo
- SETUP CONDITIONS: in vivo, ip; mouse; Table I
Kindly state LD50 at 336 h for each of the entries shown.
One number for each entry, in mg/kg.

compound="CC(c1ccccc1)N(CCCC(=O)O)C(=O)c1ccc(Cl)cc1 (racemic)" value_units=mg/kg reading=1200
compound=CC(C)(C)CC(C)(C)N(CCCC(=O)O)C(=O)c1ccc(F)cc1 value_units=mg/kg reading=400
compound=O=C(O)CCCN(C(=O)c1ccc(Cl)cc1)C12CC3CC(CC(C3)C1)C2 value_units=mg/kg reading=200
compound="CC(c1ccccc1)N(CCCCCC(=O)O)C(=O)c1ccc(Cl)cc1 (stereo not drawn)" value_units=mg/kg reading=220

With those in mind, consider the next compound.
Recorded result, O=C(O)CCCN(C(=O)c1ccc(Cl)cc1)C(Cc1ccccc1)c1ccccc1 (stereo not drawn) , LD50 at 336 h: 160
